Value source: paper PMC4336329

Biological target: human ether-à-go-go-related gene (hERG) potassium channel (human, UniProt Q12809)
Sequence (Q12809 whole entry, looked up): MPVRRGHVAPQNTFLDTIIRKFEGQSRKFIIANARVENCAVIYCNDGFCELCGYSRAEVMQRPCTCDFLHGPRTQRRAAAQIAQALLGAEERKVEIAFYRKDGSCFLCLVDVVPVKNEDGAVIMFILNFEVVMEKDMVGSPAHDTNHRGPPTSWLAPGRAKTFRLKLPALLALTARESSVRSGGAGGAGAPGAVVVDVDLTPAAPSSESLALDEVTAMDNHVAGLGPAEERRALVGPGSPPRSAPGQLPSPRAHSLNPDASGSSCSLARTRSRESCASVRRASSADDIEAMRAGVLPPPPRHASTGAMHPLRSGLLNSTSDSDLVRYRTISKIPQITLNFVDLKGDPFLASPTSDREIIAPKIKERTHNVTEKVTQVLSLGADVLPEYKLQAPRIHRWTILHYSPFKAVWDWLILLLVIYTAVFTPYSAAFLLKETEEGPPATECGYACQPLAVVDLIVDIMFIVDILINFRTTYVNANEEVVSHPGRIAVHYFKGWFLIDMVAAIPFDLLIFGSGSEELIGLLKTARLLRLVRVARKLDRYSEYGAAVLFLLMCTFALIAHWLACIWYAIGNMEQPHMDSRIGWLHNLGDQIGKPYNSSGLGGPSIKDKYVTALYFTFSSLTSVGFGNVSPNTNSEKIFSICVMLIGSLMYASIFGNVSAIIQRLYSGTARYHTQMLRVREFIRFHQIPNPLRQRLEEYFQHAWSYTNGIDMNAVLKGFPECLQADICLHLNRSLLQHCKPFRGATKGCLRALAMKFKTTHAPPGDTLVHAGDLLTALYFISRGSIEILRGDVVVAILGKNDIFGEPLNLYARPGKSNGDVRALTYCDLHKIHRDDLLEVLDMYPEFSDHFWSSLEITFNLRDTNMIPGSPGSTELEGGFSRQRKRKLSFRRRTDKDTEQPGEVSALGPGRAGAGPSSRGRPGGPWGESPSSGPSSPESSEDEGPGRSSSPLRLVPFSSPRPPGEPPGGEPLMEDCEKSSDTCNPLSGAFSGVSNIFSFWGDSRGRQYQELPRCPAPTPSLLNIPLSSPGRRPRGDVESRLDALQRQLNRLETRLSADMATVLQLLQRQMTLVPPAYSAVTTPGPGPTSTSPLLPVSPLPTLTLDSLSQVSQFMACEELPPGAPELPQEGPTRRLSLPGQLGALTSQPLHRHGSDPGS
Experiment: primary screen, population patch clamp on CHO cells stably expressing hERG; higher = less effect of the substance
Out of some 310,000 compounds screened, about 14,000 (4.5%) showed an effect of 50% or more. The effect is printed as a negative number. The full list was thinned out, with strong results kept by preference.
# hERG current change (%, negative = inhibition) at 10uM annotations
value_type: hERG current change (%, negative = inhibition) at 10uM (%)

>  <molecule>
CCN(CC)S(=O)(=O)c1ccc2nc(CCl)[nH]c2c1

>  <uom>
%

>  <readout_value>
-16.7

$$$$
>  <molecule>
c1csc(-c2nn3c(Cn4nnc5ccccc54)nnc3s2)c1

>  <uom>
%

>  <readout_value>
16.6

$$$$
>  <molecule>
CC1(C)Cc2c(cnn2-c2ccc(F)cc2)C(NC(=O)Cn2cncn2)C1 (stereo not shown)

>  <uom>
%

>  <readout_value>
7.61

$$$$
>  <molecule>
CN(Cc1ccc(C(F)(F)F)cc1)C(=O)c1ccc(Oc2ccccc2)cc1

>  <uom>
%

>  <readout_value>
13.1

$$$$
>  <molecule>
COc1ccc(-c2nc3ccccc3c(=O)n2CCOc2ccccc2C)cc1

>  <uom>
%

>  <readout_value>
21

$$$$
>  <molecule>
Cc1cccc(NC(=O)CC2NCCNC2=O)c1 (stereo not shown)

>  <uom>
%

>  <readout_value>
8.94

$$$$
>  <molecule>
O=C(/C=C/c1cccc([N+](=O)[O-])c1)N1CCN(c2ccccn2)CC1

>  <uom>
%

>  <readout_value>
-41.2

$$$$
>  <molecule>
CCCCC(NC(C)=O)c1nc2ccccc2[nH]1 (stereo not shown)

>  <uom>
%

>  <readout_value>
23.1

$$$$
>  <molecule>
COc1ccc(-n2ncc3c2CC(C)(C)CC3NC(=O)CCn2cncn2)cc1 (stereo not shown)

>  <uom>
%

>  <readout_value>
-42.2

$$$$
>  <molecule>
CCN1CCN(c2ccc(S(=O)(=O)N3CCCCC3)cc2NC(=O)c2cccc(Cl)c2)CC1

>  <uom>
%

>  <readout_value>
-34.6

$$$$

---

Target: human ether-à-go-go-related gene (hERG) potassium channel (human, UniProt Q12809)
Test: primary screen, population patch clamp on CHO cells stably expressing hERG; higher = less effect of the substance
Screen size: about 310,000 compounds; about 14,000 (4.5%) showed an effect of 50% or more. Effects have a minus sign here. The list comes from a sample in which strong results are over-represented; it also holds close analogues and randomly drawn compounds.
value_type: hERG current change (%, negative = inhibition) at 10uM (%)

>  <compound>
COC(=O)/C=C1/SC(=NC(=O)c2ccccc2)NC1=O

>  <readout_value>
-13.9

$$$$
>  <compound>
COC(=O)/C=C1/SC(=NC(=O)c2ccc(Cl)cc2)NC1=O

>  <readout_value>
26.7

$$$$
>  <compound>
CCC1CCCCN1C(=O)CSc1nnc(-c2ccco2)o1 (centres unmarked)

>  <readout_value>
4.11

$$$$
>  <compound>
CCOc1ccccc1NS(=O)(=O)c1cc2c3c(c1)C(C)C(=O)N3CCC2 (centres unmarked)

>  <readout_value>
5.26

$$$$
>  <compound>
Oc1cccc(-c2nc3c4c(ncn3n2)-c2ccccc2CC42CCCC2)c1

>  <readout_value>
-7.64

$$$$
>  <compound>
CCNC(=O)COC(=O)c1[nH]c(C)c(C(=O)OC)c1C

>  <readout_value>
8.24

$$$$
>  <compound>
CCC1CCCCN1C(=O)Cn1c(=O)n(CCC(=O)NCc2ccco2)c(=O)c2sccc21 (centres unmarked)

>  <readout_value>
-6.12

$$$$
>  <compound>
CCC(=O)N1CCN(c2ccc(Cl)cc2NC(=O)c2ccc(N3CCCC3)c([N+](=O)[O-])c2)CC1

>  <readout_value>
-6.9

$$$$

---

Let's look at some molecules and their measured hERG current change (%, negative = inhibition) at 10uM.
Molecular target: human ether-à-go-go-related gene (hERG) potassium channel (human)
Test: primary screen, population patch clamp on CHO cells stably expressing hERG; higher = less effect of the substance
The campaign covered roughly 310,000 compounds. About 14,000 (4.5%) showed an effect of 50% or more. The effect is printed as a negative number. The sample as a whole holds a higher share of strong results than the screen did.
value_type: hERG current change (%, negative = inhibition) at 10uM (%)

>  <molecule>
Cc1ccc2c(Cl)cc(Cl)c(OCC(=O)N3CCOCC3)c2n1

>  <study_system>
human ether-à-go-go-related gene (hERG) potassium channel (human)

>  <readout_value>
-8.28

$$$$
>  <molecule>
Cc1ccc(S(=O)(=O)NCCC(=O)N2CCN(C/C=C/c3ccccc3)CC2)cc1

>  <study_system>
human ether-à-go-go-related gene (hERG) potassium channel (human)

>  <readout_value>
-49.5

$$$$
>  <molecule>
O=C(CCCN=C1NS(=O)(=O)c2ccccc21)OCc1cc([N+](=O)[O-])cc2c1OCOC2

>  <study_system>
human ether-à-go-go-related gene (hERG) potassium channel (human)

>  <readout_value>
-14.7

$$$$
>  <molecule>
CC1CCCN(CCCNC(=O)c2ccc(CS(=O)(=O)Cc3cccc(Cl)c3)o2)C1 (centres unmarked)

>  <study_system>
human ether-à-go-go-related gene (hERG) potassium channel (human)

>  <readout_value>
-40.7

$$$$
>  <molecule>
Cc1ccc(CS(=O)(=O)Cc2ccc(C(=O)NCCCN3CCOCC3)o2)cc1

>  <study_system>
human ether-à-go-go-related gene (hERG) potassium channel (human)

>  <readout_value>
6.75

$$$$
>  <molecule>
CCOc1ccc(S(=O)(=O)NCCC(=O)N2CCN(Cc3ccccc3)CC2)cc1

>  <study_system>
human ether-à-go-go-related gene (hERG) potassium channel (human)

>  <readout_value>
-54.2

$$$$
>  <molecule>
Cc1oc(-c2cccc(Cl)c2)nc1CS(=O)(=O)CC(=O)NCc1ccco1

>  <study_system>
human ether-à-go-go-related gene (hERG) potassium channel (human)

>  <readout_value>
-28.2

$$$$
>  <molecule>
Cc1oc(-c2cccc(Cl)c2)nc1CN1CCCC(C(=O)NC(C)c2ccc3c(c2)OCCO3)C1 (centres unmarked)

>  <study_system>
human ether-à-go-go-related gene (hERG) potassium channel (human)

>  <readout_value>
-57.5

$$$$
>  <molecule>
O=C(O)CSc1nc(SCc2ccccc2Cl)nc2c1CCCC2

>  <study_system>
human ether-à-go-go-related gene (hERG) potassium channel (human)

>  <readout_value>
15.4

$$$$
>  <molecule>
CCOc1ccc(C(=O)N2CCN(c3cccc(C)c3C)CC2)cc1

>  <study_system>
human ether-à-go-go-related gene (hERG) potassium channel (human)

>  <readout_value>
-79.9

$$$$
>  <molecule>
CCOC(=O)C(CC)Sc1nc2c(c(=O)[nH]c(=O)n2C)n1C/C=C(/C)Cl (centres unmarked)

>  <study_system>
human ether-à-go-go-related gene (hERG) potassium channel (human)

>  <readout_value>
-82

$$$$
>  <molecule>
Cc1ccccc1NC(=O)Cn1nnc(S(=O)(=O)c2ccc(C(C)(C)C)cc2)c1N

>  <study_system>
human ether-à-go-go-related gene (hERG) potassium channel (human)

>  <readout_value>
4.35

$$$$
>  <molecule>
CCCNS(=O)(=O)c1ccc(OCC(=O)N2CCN(Cc3ccccc3)CC2)cc1

>  <study_system>
human ether-à-go-go-related gene (hERG) potassium channel (human)

>  <readout_value>
-28.6

$$$$
>  <molecule>
CCOC(=O)/C(=C/c1c(C)n(C)c2ccc([N+](=O)[O-])cc12)C(C)=O

>  <study_system>
human ether-à-go-go-related gene (hERG) potassium channel (human)

>  <readout_value>
-19.6

$$$$
>  <molecule>
Cc1ccccc1CS(=O)(=O)Cc1ccc(C(=O)NCCCN2CC(C)CC(C)C2)o1 (centres unmarked)

>  <study_system>
human ether-à-go-go-related gene (hERG) potassium channel (human)

>  <readout_value>
-36.1

$$$$
>  <molecule>
CC1CC(C)CN(CCCNC(=O)c2ccc(CS(=O)(=O)Cc3cccc(Cl)c3)o2)C1 (centres unmarked)

>  <study_system>
human ether-à-go-go-related gene (hERG) potassium channel (human)

>  <readout_value>
-69.1

$$$$
>  <molecule>
Cc1ccc(S(=O)(=O)NCCC(=O)N2CCN(Cc3ccccc3)CC2)cc1

>  <study_system>
human ether-à-go-go-related gene (hERG) potassium channel (human)

>  <readout_value>
11

$$$$

---

Biological target: human ether-à-go-go-related gene (hERG) potassium channel (human)
Test: primary screen, population patch clamp on CHO cells stably expressing hERG; higher = less effect of the substance
About 14,000 (4.5%) of roughly 310,000 compounds showed an effect of 50% or more. Effects have a minus sign here. For the sample, strong results were picked, then their nearest neighbours and some compounds at random.
Measured hERG current change (%, negative = inhibition) at 10uM values are reported for all entries that follow.
value_type: hERG current change (%, negative = inhibition) at 10uM (%)

>  <compound>
Cc1nn(Cc2ccccc2)c(C)c1C(=O)N1CCN(CC(=O)Nc2ccc(F)cc2)CC1

>  <study_system>
human ether-à-go-go-related gene (hERG) potassium channel (human)

>  <readout_value>
-62.6

$$$$
>  <compound>
c1ccc(NC2=NCCN2CCCC2CCCC2)cc1

>  <study_system>
human ether-à-go-go-related gene (hERG) potassium channel (human)

>  <readout_value>
-53.4

$$$$
>  <compound>
O=C(CN1CCN(CC(=O)Nc2ccccc2Cc2ccccc2)CC1)Nc1ccccc1Cl

>  <study_system>
human ether-à-go-go-related gene (hERG) potassium channel (human)

>  <readout_value>
20

$$$$
>  <compound>
CC(NC(=O)CCC(=O)NCc1ccc(F)cc1)c1ccccc1 (stereo not drawn)

>  <study_system>
human ether-à-go-go-related gene (hERG) potassium channel (human)

>  <readout_value>
13.3

$$$$
>  <compound>
Cc1nn(Cc2ccccc2Cl)c(C)c1C(=O)N1CCN(c2ccccc2)CC1

>  <study_system>
human ether-à-go-go-related gene (hERG) potassium channel (human)

>  <readout_value>
-58.6

$$$$
>  <compound>
CCOC(=O)CSc1nc2ccccc2c(=O)n1-c1ccc(C)cn1

>  <study_system>
human ether-à-go-go-related gene (hERG) potassium channel (human)

>  <readout_value>
0.327

$$$$
>  <compound>
CCC(=NCCc1ccccc1)c1c(O)[nH]c(=O)[nH]c1=O

>  <study_system>
human ether-à-go-go-related gene (hERG) potassium channel (human)

>  <readout_value>
10.1

$$$$
>  <compound>
c1ccc(NC2=NCCN2CCCC2CCCCC2)cc1

>  <study_system>
human ether-à-go-go-related gene (hERG) potassium channel (human)

>  <readout_value>
-47.6

$$$$
>  <compound>
COc1cc(/C=N/NC(=O)c2cccc(NC(=O)c3ccccc3Cl)c2)ccc1O

>  <study_system>
human ether-à-go-go-related gene (hERG) potassium channel (human);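 also: peak tail current of the secondary pulse compared with the same well before compound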

>  <readout_value>
-55.6

$$$$
>  <compound>
COc1cccc(N2CCN(C(=S)Nc3ccccc3)CC2)c1

>  <study_system>
human ether-à-go-go-related gene (hERG) potassium channel (human);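 also: peak tail current of the secondary pulse compared with the same well before compound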

>  <readout_value>
19

$$$$
>  <compound>
Cc1cccc(N2CCN(C(=O)c3c(C)nn(Cc4ccccc4Cl)c3C)CC2)c1C

>  <study_system>
human ether-à-go-go-related gene (hERG) potassium channel (human);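 also: peak tail current of the secondary pulse compared with the same well before compound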

>  <readout_value>
-0.851

$$$$
>  <compound>
CCCCOC(=O)NC1(C)CCS(=O)(=O)C1 (stereo not drawn)

>  <study_system>
human ether-à-go-go-related gene (hERG) potassium channel (human);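 also: peak tail current of the secondary pulse compared with the same well before compound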

>  <readout_value>
27.1

$$$$
